# MEASUREMENT_PROTOCOL: gradient 5% acetonitrile 3 min, to 50% in 2 min, to 85% in 15 min, held 3 min, 100 µL/min
# TEST_PARAMETERS: column: Zorbax Extend-C18 2.1 x 50 mm; eluents: water / acetonitrile, 0.1% formic acid
Rule: RP-LC retention time below 900 s gives true, anything at or above gives false.

Exercise: Item OCC1CN(c2ncccn2)CC12CCN(Cc1cc(Cl)ccc1F)CC2 (stereo not given) : RP-LC retention time beneath 900 s, strictly?
Solution: true

Exercise: And Cc1ccc(C)c(Sc2ccc(N3CCC(C(=O)NCC(C)c4ccccc4)CC3)nn2)c1 (stereo not given) ?
Solution: false

Exercise: What would you report for "COc1cc(NC(=O)COc2cc(C(F)(F)F)c3c(C)nn(C)c3n2)cc(OC)c1" ?
Solution: false

Exercise: Same question for CC(=O)N1CCOc2cc(S(=O)(=O)N3CCCCCC3c3cccc(F)c3)ccc21 (stereo not given) please.
Solution: false

Exercise: Same again, this time with O=C(Nc1nnc(C2CCCO2)o1)c1cc2ccccc2o1 (stereo not given)
Solution: true

Exercise: Same for "O=C(O)c1cc(Nc2ccc(F)cc2)c2cccc(Cl)c2n1"
Solution: true

Exercise: Query "Cc1ccc(-c2noc(-c3cccc(S(=O)(=O)Nc4ccccc4)c3)n2)cc1" next
Solution: false

Exercise: # repeat for COc1ccc(C(=O)N2CCC(n3c(-c4ccco4)nc4cccnc43)C2)cc1OC (stereo not given)
Solution: true

Exercise: "O=C(Nc1cc(F)ccc1F)c1ccc(=O)n(Cc2cccc(C(F)(F)F)c2)c1" , same question.
Solution: true

----------
# MEASUREMENT_PROTOCOL: gradient 5% acetonitrile 3 min, to 50% in 2 min, to 85% in 15 min, held 3 min, 100 µL/min
# TEST_PARAMETERS: column: Zorbax Extend-C18 2.1 x 50 mm; eluents: water / acetonitrile, 0.1% formic acid
RESULT_TYPE: RP-LC retention time (s)
Write down the numeric answer in s and omit the unit.

Exercise: What does the data say about its RP-LC retention time? Entry: "CCOC(=O)c1nc(Nc2ccc(C)c(C)c2)c2ccccc2n1"
Solution: 934

Exercise: Another compound: "COC(=O)c1cnn(-c2ccc(C(=O)N3CCc4ccccc43)cc2)c1N"
Solution: 768

Exercise: Next: "CCOc1nc2c(c(C)nn2-c2cccc(C)c2)c(C)c1CCC(=O)N1CCN(c2ccccn2)CC1"
Solution: 910

Exercise: Same read-out for "O=C(CCn1nnc2cc(-c3noc(-c4ccc(Br)o4)n3)ccc21)N1CCOCC1" ?
Solution: 822

Exercise: Moving on to "O=C(NCc1ccc(F)c(Cl)c1)c1sc2ncccc2c1-n1cccc1"
Solution: 1050

Exercise: How about "CCCn1c(=O)c2c(nc3n2CCCCN3c2ccc(OCC)cc2)n(C)c1=O" ?
Solution: 973

Exercise: Param item: "COc1ccc(-n2ncc3c(=O)n(Cc4nc(-c5cccc(Br)c5)no4)cnc32)cc1"
Solution: 1110

Exercise: Follow-up entry: "Cc1cc(-c2nnc(-c3ccc(F)cc3)o2)c(C)n1CC(=O)NCc1cccc(F)c1"
Solution: 940

Exercise: Check "COc1cccc(CNC(=O)Cn2c(=O)cc(-c3nc(C)no3)c3ccccc32)c1" too.
Solution: 806

Exercise: Try this compound next: Cn1ncc(Br)c1C(=O)N1CCCC1c1ccc(F)cc1 (centres undefined)
Solution: 832

Exercise: What would you report for Cc1ccccc1CC(=O)NC1CCN(c2ccc(F)cc2)C1=O (centres undefined) ?
Solution: 810

Exercise: Queued: Cc1nc2cc(N3CC(C(=O)NCc4ccc(F)c(Cl)c4)CC3=O)ccc2o1 (centres undefined)
Solution: 750

Exercise: Try this compound next: CCN1C(=O)COc2ccc(-c3noc(C4CC(=O)N(c5ccc(C)cc5)C4)n3)cc21 (centres undefined)
Solution: 878

Exercise: Please answer likewise for COc1ccc(OC)c(C(C)NC(=O)CCc2ccc3nc[nH]c3c2)c1 (centres undefined)
Solution: 613
